# assay_system: T1, human GIP receptor (human, UniProt P48546 22-466)
# T1 sequence (looked up): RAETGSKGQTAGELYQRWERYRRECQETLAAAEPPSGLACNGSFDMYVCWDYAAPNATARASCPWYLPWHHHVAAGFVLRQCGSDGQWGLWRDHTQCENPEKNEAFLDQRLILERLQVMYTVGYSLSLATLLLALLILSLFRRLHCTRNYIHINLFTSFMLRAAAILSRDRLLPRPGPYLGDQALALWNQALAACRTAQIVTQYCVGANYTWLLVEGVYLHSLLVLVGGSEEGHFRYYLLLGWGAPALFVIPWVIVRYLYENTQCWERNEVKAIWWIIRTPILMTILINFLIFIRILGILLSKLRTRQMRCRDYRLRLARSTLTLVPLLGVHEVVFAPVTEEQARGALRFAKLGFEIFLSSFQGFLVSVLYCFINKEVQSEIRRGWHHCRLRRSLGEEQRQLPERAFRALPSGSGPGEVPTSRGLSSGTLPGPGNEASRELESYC
# assay_name: cell-based or functional assay
Bridge positions count the residues as written; N and C are the ends. Square brackets hold non-standard residues; d marks the D form. Ends that are not written are not given here. C20L5A = not defined here; Aib = CC(C)(N)C(=O)O
reported_metric: EC50 of receptor-mediated cAMP synthesis, GIPR (nM), 02/19
Numbers only, in nM.

* Y[Aib]EGTFTSDYSIYLDKCAA[Aib]EFVCWLIAGGPSSGAPPPS-NH2 (linker 17-24 via C20L5A; not fully specified; reading uncertain) [mCMV268 (27I, C(17-24)-C20L5A)] | 0.05

Let us examine a further case.
Input line: Query (binder): Y[Aib]EGTFTSDYSIYCDKQAA[Aib]CFVNWLLAGGPSSGAPPPS-NH2 (linker 14-21 via C20L5A; reading uncertain) [C(14-21)-C20L5A] ; field requested: EC50 of receptor-mediated cAMP synthesis, GIPR (nM), 02/19
Output line: 0.07
